Reference for the values: paper PMC10387993

Form field: cytotoxicity at 24 h, 50 μg/mL (one value per entry).
# Procedure Text: LDH cytotoxic activity assay, C6
# Type: cell-based
# Condition Set: rat, C6 glioma cells, C6, 50 μg/mL
Readout: cytotoxicity at 24 h, 50 μg/mL (%)

# Input Smiles, Readout, Result Number
records = [
    ("Cc1ccccc1-c1cc(-c2ccncc2)nc(N[C@@H]2O[C@H](CO)[C@@H](O)[C@H](O)[C@H]2O)n1", "cytotoxicity at 24 h, 50 μg/mL", 32.1),
    ("CC(=O)OC[C@H]1O[C@@H](Nc2nc(-c3cccc(C)c3)cc(-c3ccccn3)n2)[C@H](OC(C)=O)[C@@H](OC(C)=O)[C@@H]1OC(C)=O", "cytotoxicity at 24 h, 50 μg/mL", 51.2),
    ("CC(=O)OC[C@H]1O[C@@H](Nc2nc(-c3cccnc3)cc(-c3ccccc3C)n2)[C@H](OC(C)=O)[C@@H](OC(C)=O)[C@@H]1OC(C)=O", "cytotoxicity at 24 h, 50 μg/mL", 42.2),
    ("Cc1ccccc1-c1cc(-c2ccccn2)nc(N[C@@H]2O[C@H](CO)[C@@H](O)[C@H](O)[C@H]2O)n1", "cytotoxicity at 24 h, 50 μg/mL", 28.7),
    ("CC(=O)OC[C@H]1O[C@@H](Nc2nc(-c3ccccn3)cc(-c3ccccc3C)n2)[C@H](OC(C)=O)[C@@H](OC(C)=O)[C@@H]1OC(C)=O", "cytotoxicity at 24 h, 50 μg/mL", 54.3),
    ("Cc1cccc(-c2cc(-c3ccncc3)nc(N[C@@H]3O[C@H](CO)[C@@H](O)[C@H](O)[C@H]3O)n2)c1", "cytotoxicity at 24 h, 50 μg/mL", 38.2),
    ("Cc1ccc(-c2cc(-c3ccncc3)nc(N[C@@H]3O[C@H](CO)[C@@H](O)[C@H](O)[C@H]3O)n2)cc1", "cytotoxicity at 24 h, 50 μg/mL", 34.1),
    ("CC(=O)OC[C@H]1O[C@@H](Nc2nc(-c3cccnc3)cc(-c3cccc(C)c3)n2)[C@H](OC(C)=O)[C@@H](OC(C)=O)[C@@H]1OC(C)=O", "cytotoxicity at 24 h, 50 μg/mL", 35.3),
    ("CC(=O)OC[C@H]1O[C@@H](Nc2nc(-c3ccc(C)cc3)cc(-c3cccnc3)n2)[C@H](OC(C)=O)[C@@H](OC(C)=O)[C@@H]1OC(C)=O", "cytotoxicity at 24 h, 50 μg/mL", 44.6),
    ("CC(=O)OC[C@H]1O[C@@H](Nc2nc(-c3ccncc3)cc(-c3cccc(C)c3)n2)[C@H](OC(C)=O)[C@@H](OC(C)=O)[C@@H]1OC(C)=O", "cytotoxicity at 24 h, 50 μg/mL", 55),
    ("CC(=O)OC[C@H]1O[C@@H](Nc2nc(-c3ccncc3)cc(-c3ccc(C)cc3)n2)[C@H](OC(C)=O)[C@@H](OC(C)=O)[C@@H]1OC(C)=O", "cytotoxicity at 24 h, 50 μg/mL", 44.1),
    ("Cc1cccc(-c2cc(-c3cccnc3)nc(N[C@@H]3O[C@H](CO)[C@@H](O)[C@H](O)[C@H]3O)n2)c1", "cytotoxicity at 24 h, 50 μg/mL", 44.1),
    ("Cc1ccc(-c2cc(-c3ccccn3)nc(N[C@@H]3O[C@H](CO)[C@@H](O)[C@H](O)[C@H]3O)n2)cc1", "cytotoxicity at 24 h, 50 μg/mL", 48.6),
    ("Cc1ccc(-c2cc(-c3cccnc3)nc(N[C@@H]3O[C@H](CO)[C@@H](O)[C@H](O)[C@H]3O)n2)cc1", "cytotoxicity at 24 h, 50 μg/mL", 45.4),
    ("Cc1cccc(-c2cc(-c3ccccn3)nc(N[C@@H]3O[C@H](CO)[C@@H](O)[C@H](O)[C@H]3O)n2)c1", "cytotoxicity at 24 h, 50 μg/mL", 49.3),
    ("CC(=O)OC[C@H]1O[C@@H](Nc2nc(-c3ccc(C)cc3)cc(-c3ccccn3)n2)[C@H](OC(C)=O)[C@@H](OC(C)=O)[C@@H]1OC(C)=O", "cytotoxicity at 24 h, 50 μg/mL", 28.9),
    ("Cc1ccccc1-c1cc(-c2cccnc2)nc(N[C@@H]2O[C@H](CO)[C@@H](O)[C@H](O)[C@H]2O)n1", "cytotoxicity at 24 h, 50 μg/mL", 49.8),
    ("CC(=O)OC[C@H]1O[C@@H](Nc2nc(-c3ccncc3)cc(-c3ccccc3C)n2)[C@H](OC(C)=O)[C@@H](OC(C)=O)[C@@H]1OC(C)=O", "cytotoxicity at 24 h, 50 μg/mL", 46.7),
]
